Recorded values, source paper PMC4949581.

Target: UniProtKB F6BL85
Sequence (F6BL85 19-806): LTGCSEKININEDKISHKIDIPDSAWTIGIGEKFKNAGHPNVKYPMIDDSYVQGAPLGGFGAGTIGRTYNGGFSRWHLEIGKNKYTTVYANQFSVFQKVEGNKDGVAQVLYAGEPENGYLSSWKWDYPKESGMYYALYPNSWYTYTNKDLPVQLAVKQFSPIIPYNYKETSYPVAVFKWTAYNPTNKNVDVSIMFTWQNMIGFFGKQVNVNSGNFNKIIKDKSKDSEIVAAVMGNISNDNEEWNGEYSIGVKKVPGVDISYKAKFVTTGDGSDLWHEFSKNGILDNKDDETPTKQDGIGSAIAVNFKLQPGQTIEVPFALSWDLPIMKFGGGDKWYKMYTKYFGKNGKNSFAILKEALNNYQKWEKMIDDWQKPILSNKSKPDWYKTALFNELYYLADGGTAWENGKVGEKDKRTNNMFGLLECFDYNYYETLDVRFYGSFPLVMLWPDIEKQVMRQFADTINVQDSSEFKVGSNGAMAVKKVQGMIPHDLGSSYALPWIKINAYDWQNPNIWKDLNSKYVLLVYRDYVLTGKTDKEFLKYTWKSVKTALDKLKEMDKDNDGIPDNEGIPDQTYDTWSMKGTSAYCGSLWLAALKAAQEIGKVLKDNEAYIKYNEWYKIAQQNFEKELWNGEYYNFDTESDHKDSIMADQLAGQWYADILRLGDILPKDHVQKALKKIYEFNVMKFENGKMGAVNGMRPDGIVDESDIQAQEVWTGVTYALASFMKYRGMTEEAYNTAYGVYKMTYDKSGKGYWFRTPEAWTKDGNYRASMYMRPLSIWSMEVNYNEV
Assay: crystal structure
Type: biochemical
REPORTED_ENDPOINT: pKi
Value format note: pKi is -log10 of concentration (mol/L); just state the number.

Form field: reported pKi of OC[C@H]1NC[C@H](O)[C@@H](O)[C@@H]1O 6.89

* * *

Target: TxGH116 β-glucosidase (Thermoanaerobacterium xylanolyticum, UniProt F6BL85)
Sequence (F6BL85 19-806): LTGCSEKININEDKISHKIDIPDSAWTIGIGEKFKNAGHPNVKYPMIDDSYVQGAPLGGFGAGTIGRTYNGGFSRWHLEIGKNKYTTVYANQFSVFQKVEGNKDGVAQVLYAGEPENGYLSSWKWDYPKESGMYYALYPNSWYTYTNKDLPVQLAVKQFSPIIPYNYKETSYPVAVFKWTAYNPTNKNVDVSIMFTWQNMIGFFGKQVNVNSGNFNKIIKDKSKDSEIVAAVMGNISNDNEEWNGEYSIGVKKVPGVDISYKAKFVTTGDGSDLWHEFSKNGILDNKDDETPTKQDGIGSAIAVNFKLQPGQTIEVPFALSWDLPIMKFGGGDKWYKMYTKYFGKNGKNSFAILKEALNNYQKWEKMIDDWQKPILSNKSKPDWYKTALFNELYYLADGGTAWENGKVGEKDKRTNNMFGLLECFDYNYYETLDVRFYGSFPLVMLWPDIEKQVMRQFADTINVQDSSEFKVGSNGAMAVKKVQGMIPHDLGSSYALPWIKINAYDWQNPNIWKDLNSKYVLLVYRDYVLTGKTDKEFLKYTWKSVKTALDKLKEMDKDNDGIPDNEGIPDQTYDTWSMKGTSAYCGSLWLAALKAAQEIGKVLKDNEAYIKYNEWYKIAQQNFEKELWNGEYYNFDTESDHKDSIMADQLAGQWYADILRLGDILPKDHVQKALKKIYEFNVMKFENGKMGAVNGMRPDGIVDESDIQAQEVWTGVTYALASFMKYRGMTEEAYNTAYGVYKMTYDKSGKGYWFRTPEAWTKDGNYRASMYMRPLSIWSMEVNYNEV
Assay: inhibition of 4NPGlc hydrolysis, Lineweaver–Burk
Format: biochemical
REPORTED_ENDPOINT: pKi
Value format note: pKi is -log10 of concentration (mol/L); just state the number.

Form field: reported pKi of OC[C@H]1CNC[C@@H](O)[C@@H]1O 8.54
